Listed here are compounds together with their documented % FTC (inhibition of mitoxantrone efflux normalized to 10 μM FTC).
Biological target: BCRP (Homo sapiens, UniProt Q9UNQ0)
Experiment: cell-based
Conditions: compound 20 μM; NCI-H460/MX20
Give just the numeric value; % FTC need not be written.

CCOC(=O)CN1C(=O)C(c2ccc(O)cc2)=C(c2ccc(O)cc2)C1(O)C(=O)OC (stereo not drawn)
6.20
COC(=O)c1c(-c2ccc(O)cc2)c(-c2ccc(O)cc2)cn1CC(O)c1ccc(O)cc1 (stereo not drawn)
5.13
COC(=O)c1c(Br)c(Br)c(Br)n1CC(=O)c1ccc(OC)cc1
5.45

Prompt: Name the reported % FTC (inhibition of mitoxantrone efflux normalized to 10 μM FTC) value associated with the compound CCOCN1C(=O)C(c2ccc(O)cc2)=C(c2ccc(O)cc2)C1(O)C(=O)OC (stereo not drawn)
Completion: 6.66

Prompt: Name the reported % FTC (inhibition of mitoxantrone efflux normalized to 10 μM FTC) value associated with the compound COC(=O)C1(O)OC(=O)C(c2ccc(O)cc2)=C1c1ccc(O)cc1 (stereo not drawn)
Completion: 4.06

Prompt: Name the reported % FTC (inhibition of mitoxantrone efflux normalized to 10 μM FTC) value associated with the compound `COC(=O)c1c(-c2ccc(O)cc2)c(-c2ccc(O)cc2)cn1CC(=O)c1ccc(O)cc1`
Completion: 10.6

Prompt: Name the reported % FTC (inhibition of mitoxantrone efflux normalized to 10 μM FTC) value associated with the compound CCOC1(C(=O)OC)NC(=O)C(c2ccc(O)cc2)=C1c1ccc(O)cc1 (stereo not drawn)
Completion: 3.13

Prompt: Name the reported % FTC (inhibition of mitoxantrone efflux normalized to 10 μM FTC) value associated with the compound COC(=O)C1(O)C(c2ccc(O)cc2)=C(c2ccc(O)cc2)C(=O)N1CC(=O)c1ccc(OC)cc1 (stereo not drawn)
Completion: 9.79

----------
Target: BCRP (Homo sapiens)
Sequence (Q9UNQ0 1-655): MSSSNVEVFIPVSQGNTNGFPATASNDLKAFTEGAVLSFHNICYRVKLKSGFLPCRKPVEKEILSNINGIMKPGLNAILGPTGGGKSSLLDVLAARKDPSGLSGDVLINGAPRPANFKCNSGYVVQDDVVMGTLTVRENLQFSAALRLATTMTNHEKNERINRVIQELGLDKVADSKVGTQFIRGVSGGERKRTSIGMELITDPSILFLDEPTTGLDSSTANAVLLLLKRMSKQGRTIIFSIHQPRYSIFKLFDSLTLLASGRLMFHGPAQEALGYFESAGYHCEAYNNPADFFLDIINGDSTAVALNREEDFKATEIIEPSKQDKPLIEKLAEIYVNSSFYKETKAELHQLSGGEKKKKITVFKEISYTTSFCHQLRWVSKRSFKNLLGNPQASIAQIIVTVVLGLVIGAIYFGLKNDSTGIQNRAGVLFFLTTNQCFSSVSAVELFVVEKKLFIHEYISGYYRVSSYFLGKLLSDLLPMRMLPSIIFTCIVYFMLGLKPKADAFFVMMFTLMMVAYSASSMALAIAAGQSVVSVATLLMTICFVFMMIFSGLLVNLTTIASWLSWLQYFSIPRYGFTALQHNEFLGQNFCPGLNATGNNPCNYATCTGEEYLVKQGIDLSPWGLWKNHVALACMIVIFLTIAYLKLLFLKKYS
Assay: cell-based
Details: compound 20 μM vs PBS; NCI-H460/MX20
Parameter measured: FAR (fluorescence arbitrary ratio), mitoxantrone fluorescence (fold)
Give just the numeric value; fold need not be written.

COCN1C(=O)C(c2ccc(O)cc2)=C(c2ccc(O)cc2)C1(O)C(=O)OC (stereo not drawn)
1.12
COC(=O)c1c(-c2ccc(O)cc2)c(-c2ccc(O)cc2)cn1CC(O)c1ccc(O)cc1 (stereo not drawn)
1.11
COC(=O)C1(O)C(c2ccc(O)cc2)=C(c2ccc(O)cc2)C(=O)N1CC(=O)c1ccc(OC)cc1 (stereo not drawn)
1.21
CCOCN1C(=O)C(c2ccc(O)cc2)=C(c2ccc(O)cc2)C1(O)C(=O)OC (stereo not drawn)
1.15
COC(=O)c1ccc(Br)n1CC(=O)c1ccc(OC)cc1
0.97

Prompt: Name the reported FAR (fluorescence arbitrary ratio), mitoxantrone fluorescence value associated with the molecule `COC(=O)c1c(-c2ccc(O)cc2)c(-c2ccc(O)cc2)cn1CC(=O)c1ccc(O)cc1`
Completion: 1.23

Prompt: Name the reported FAR (fluorescence arbitrary ratio), mitoxantrone fluorescence value associated with the molecule CCOC(=O)CN1C(=O)C(c2ccc(O)cc2)=C(c2ccc(O)cc2)C1(O)C(=O)OC (stereo not drawn)
Completion: 1.14
